Test system: ACHN renal
Experimental protocol: NCI-60 one-dose screen, 48 h
Experimental parameters: 10 µM unless noted
Procedure: Growth inhibition of the ACHN human tumor cell line is measured as a screen for anti-cancer activity. Cells are grown in 96 well plates and exposed to the test compound for 48 hours. Compounds are tested at a single concentration, which is 10^-5 M for most compounds. The reported endpoint is percent growth (GI% or GIPRCNT), where numbers from 0 - 100% represent growth inhibition, and numbers from -100% - 0 represent cell death. For example, a value of 40 represents 60% growth inhibition. […]
This is part of a sample that, as a whole, favours compounds with a hit. Of some 83,000 tested, about 20% had one in any assay. Activity calls are given as the source filed them. How the source made its calls: active means growth percent below 10; inactive means the rest.
Thanks in advance; please answer with one of these: active, inactive

# count of solved cases: 5
{"columns": ["Compound", "Test target", "Assigned label"],
 "data": [
  ["c1ccc(CSc2nnc(-c3ccc4nc(-c5ccccc5)[nH]c4c3)o2)cc1", "ACHN renal", "active"],
  ["COc1c2c(cc3c1C(CCc1ccccc1)N(C)CC3)OCO2 (stereo not drawn)", "ACHN renal", "inactive"],
  ["COc1sc(/C=N/NC(=O)c2[nH]c3ccc(Br)cc3c2-c2ccccc2)cc1Cl", "ACHN renal", "active"],
  ["CCCCNc1ccc2c3c(cccc13)C(=O)N(NCC(O)COc1ccc3c(C)cc(=O)oc3c1)C2=O (stereo not drawn)", "ACHN renal", "inactive"],
  ["CCC1(OC(=O)c2ccccc2SSCCOC(=O)CCCCC2SCC3NC(=O)NC32)C(=O)OCc2c1cc1n(c2=O)Cc2cc3ccccc3nc2-1 (stereo not drawn)", "ACHN renal", "inactive"]
]}

Input line: Recorded test outcome, item O=C(N/N=C/c1c[nH]c2ccccc12)Nc1ccc(F)c(Cl)c1
Output line: inactive

Input line: Any idea what this test logged for COc1ccc(N=Nc2c(N)nn3c(-c4cc5cc(Br)ccc5oc4=O)ccnc23)cc1 ?
Output line: active

Input line: What call does the record list for Fc1ccc(N2CC(Cn3c(C(F)(F)F)cc4c(Cl)ncnc43)C2)c(F)c1 ?
Output line: inactive

Input line: # fetch the recorded call for COc1ccc(-c2cc(C(=O)N=Nc3c(O)[nH]c4ccc(Cl)cc34)c3ccccc3n2)cc1OC here
Output line: inactive

Input line: So what was the verdict on O=C1Nc2cc(-c3ccc(NS(=O)(=O)c4ccc(F)c(Cl)c4)cc3)ccc2/C1=C/c1ccc[nH]1 in this test?
Output line: active

---

Tested on: DU-145 prostate
Experimental protocol: NCI-60 one-dose screen, 48 h
Experimental parameters: 10 µM unless noted
Experimental: Cells are grown in 96 well plates and exposed to the test compound for 48 hours. Compounds are tested at a single concentration, which is 10^-5 M for most compounds. The reported endpoint is percent growth (GI% or GIPRCNT), where numbers from 0 - 100% represent growth inhibition, and numbers from -100% - 0 represent cell death. For example, a value of 40 represents 60% growth inhibition. A value of 0 means no net growth occurred over the course of the experiment. […]
About 83,000 compounds went through this panel and 20% of them were active in at least one assay; those are over-represented in the sample as a whole. The source made the active and inactive calls. The calls were made as follows: active = growth percent below 10; inactive = the rest.
Tick one outcome: active, inactive

{"columns": ["Compound", "Assigned label"],
 "data": [
  ["O=C(Cc1c(-c2cccc([N+](=O)[O-])c2)n(-c2ncnc3c2c(-c2ccccc2)c(-c2ccccc2)n3Cc2ccccc2)[nH]c1=O)c1ccc(Cl)c(Cl)c1", "inactive"],
  ["N/C(=N\\c1nc2ccccc2s1)NC(=O)Nc1ccccc1F", "active"],
  ["N#CC1=C(c2cccs2)Nc2c(c(-c3ccccc3)nn2-c2ccccc2)C12C(=O)Nc1ccccc12 (centres undefined)", "inactive"]
]}

Input line: GET /call?item= Cc1cc(C(NC(=O)C2CC3(CC(Nc4cccc5c4C(=O)N(C4CCC(=O)NC4=O)C5=O)C3)C2)c2ccc3c(c2)OC(F)(F)O3)c(O)c2ncccc12 (centres undefined) returns the recorded outcome of this test.
Output line: inactive

---

System: SW-620 colon
Experimental protocol: NCI-60 one-dose screen, 48 h
Experimental parameters: 10 µM unless noted
The panel holds about 83,000 compounds, 20% with a hit somewhere; the sample as a whole holds those more often. The source made the active and inactive calls. Rule for the calls: active = growth percent below 10; inactive = the rest.
Give one outcome, nothing more. List: active, inactive

# count of solved cases: 3
{"columns": ["Molecule", "Assigned label"],
 "data": [
  ["CCN1C(=O)N(CC)C2NNC(Sc3c(C(=O)O)c4ccccc4n(CCC(C)C)c3=O)=NC21 (stereo not given)", "inactive"],
  ["CS(=O)(=O)c1ccc(-n2nc(C(=O)NCc3ccccc3)cc2-c2ccc(Cl)cc2)cc1", "inactive"],
  ["N#CC1=C(c2cccs2)Nc2c(c(-c3ccccc3)nn2-c2ccccc2)C12C(=O)Nc1ccccc12 (stereo not given)", "active"]
]}

Input line: Record request — test call for Clc1ccc(Nc2nnc(-c3c[nH]c4ccccc34)o2)cc1
Output line: inactive

Input line: Identify the outcome logged in this assay for the molecule shown: COC(=O)c1cc(C(C)=O)n2c3ccccc3c3ccccc3c12
Output line: inactive

Input line: Identify the outcome logged in this assay for the molecule shown: Cc1cccc(NCC(=O)N2CCN(c3ncnc4c3cnn4-c3ccccc3)CC2)c1
Output line: inactive

Input line: Dear colleague, could you share the recorded outcome for CC1=C(C)C(=O)C(NCCN2CCOCC2)=C(Br)C1=O when you have a moment?
Output line: inactive

Input line: So what was the verdict on O=C1NC(=S)/C(=C/c2cn(-c3ccccc3)nc2-c2ccccc2)S1 in this test?
Output line: inactive

Input line: Given O=C(Cn1c(/C=C/c2ccc([N+](=O)[O-])cc2)nc2ccccc2c1=O)Nc1ccccc1 , state the outcome it received in this test.
Output line: inactive

Input line: // param item: Cc1ccc(C(=O)Nc2ccc(-n3ccnc3)c(C(F)(F)F)c2)cc1C#Cc1cnc2cccnn12 ; yields the recorded call
Output line: inactive

---

Tested on: SF-268 CNS
Experimental protocol: NCI-60 one-dose screen, 48 h (100 = growth as untreated, 0 = no growth, -100 = all killed)
Experimental parameters: 10 µM unless noted
Compounds without any hit were thinned out: in the full panel of roughly 83,000, 20% have a hit. Activity calls are given as the source filed them. How the source made its calls: active means growth percent below 10; inactive means the rest.
Quantity kind: growth

Solved cases below.
{"columns": ["Molecule", "Test target", "Quantity kind", "Measurement"],
 "data": [
  ["Cc1nc2sccn2c1-c1nnc(SCc2ccccc2)o1", "SF-268 CNS", "growth", "105% (inactive)"],
  ["CN(C)c1nc(NCCNS(=O)(=O)c2ccc(C(=O)/C=C/c3ccc(C(F)(F)F)cc3)cc2)nc(N2CCOCC2)n1", "SF-268 CNS", "growth", "50.5% (inactive)"],
  ["O=C1Nc2cc(-c3ccc(NS(=O)(=O)c4ccc([N+](=O)[O-])cc4)cc3)ccc2/C1=C/c1ccc[nH]1", "SF-268 CNS", "growth", "46.6% (inactive)"]
]}

Input line: Report growth, nothing else, for this molecule: COc1c2c(cc3c1C(CCc1ccccc1)N(C)CC3)OCO2 (centres undefined)
Output line: 23.2% (inactive)

---

Tested on: SF-539 CNS
Experimental protocol: NCI-60 one-dose screen, 48 h (100 = growth as untreated, 0 = no growth, -100 = all killed)
Experimental parameters: 10 µM unless noted
About 83,000 compounds went through this panel and 20% of them were active in at least one assay; those are over-represented in the sample as a whole.
Classify by growth. Ranges: Low = under -70%, Mid = from -70% up to 30%, High = 30% and over

The examples below pair each entry with its known result.
{"columns": ["Molecule", "Assigned label"],
 "data": [
  ["O=C1Nc2cc(-c3ccc(NS(=O)(=O)c4ccc(C(F)(F)F)cc4)cc3)ccc2/C1=C/c1ccc[nH]1", "High"],
  ["COc1ccc(NC2=C(I)C(=O)C(C)=C(C)C2=O)cc1", "Mid"],
  ["CN(C)C(=O)c1cc(-c2ccc3ncnc(N4CCc5cc(F)c(Cl)cc54)c3c2)cnc1N", "Low"],
  ["O=Cc1cncc(-c2ccc3ncnc(N4CCc5cc(F)c(Cl)cc54)c3c2)c1", "Mid"],
  ["Cc1ccc(O)cc1Nc1nc(SCCN2CCOCC2)nc2c1cnn2CC(Cl)c1ccc(Br)cc1 (centres undefined)", "Mid"]
]}

Input line: The entry to classify is NS(=O)(=O)c1ccc(N2N=C(c3ccc(NC(=O)Nc4ccccc4)cc3)CC2c2ccc(Br)cc2)cc1 (centres undefined) ; which class holds it?
Output line: Low

Input line: Lab log: COc1ccc(C(=O)c2c(N)c(C#N)cn2-c2ccc([N+](=O)[O-])cc2)cc1 — assign growth category
Output line: High

Input line: Class? Entry: O=C(NC(=S)N1CCN(c2ncnc3c2cnn3-c2ccccc2)CC1)c1ccc(Br)cc1
Output line: Mid

---

Test system: RPMI-8226 leukemia
Experimental protocol: NCI-60 one-dose screen, 48 h
Experimental parameters: 10 µM unless noted
The panel holds about 83,000 compounds, 20% with a hit somewhere; the sample as a whole holds those more often. The source made the active and inactive calls. How the source made its calls: active means growth percent below 10; inactive means the rest.
Select the matching outcome among true (active), false (inactive)

Worked set:
{"columns": ["Molecule", "Assigned label"],
 "data": [
  ["Cc1nn(-c2ccccc2)c2nc(C)n(CC(=O)N/N=C/c3cccc([N+](=O)[O-])c3)c(=O)c12", "false"],
  ["O=C(N/N=C/c1ccc(Br)o1)c1[nH]c2ccc(Br)cc2c1-c1ccccc1", "false"],
  ["O=C1/C(=C/C=C/c2ccco2)SC(=S)N1CC(=S)C1C=CS(=O)(=O)C1 (stereo not drawn)", "false"],
  ["CN1CCN(c2ccc3c4c(cccc24)C(=O)N(c2cccc(-c4nn(-c5ccccc5)cc4-c4nc5ccccc5s4)c2)C3=O)CC1", "false"],
  ["CN1CCN(C(=O)Oc2cc3c(c4ccccc24)[C@H](CCl)CN3C(=O)c2cc3cc(OCCCN4CCC4)ccc3[nH]2)[C@H]2CSSC[C@H]21", "true"],
  ["COC(=O)c1cccc(Oc2ccc(NC(=O)Nc3cc(C(F)(F)F)ccc3F)cc2)c1", "false"],
  ["C[C@H](NC(=O)c1ccc2c(-c3ccc(C(F)(F)F)cc3)cccc2c1)c1ccccn1", "false"],
  ["CN(C)c1nc(NCCNS(=O)(=O)c2ccc(C(=O)/C=C/c3ccccc3)cc2)nc(N2CCOCC2)n1", "true"],
  ["O=C(NNC(=S)NCCc1ccccc1)c1ccc(OCc2nc3ccc(Cl)cc3[nH]2)cc1", "false"],
  ["Cc1ccc(S(=O)(=O)Nc2ccc(-c3ccc4c(c3)NC(=O)/C4=C\\c3ccc[nH]3)cc2)cc1", "false"]
]}

Input line: Call for entry Cn1cc(-c2cc(N)n3nc(-c4c[nH]c5ccc(F)cc45)cc3n2)c2cc(Br)cnc21 :
Output line: false

Input line: Recorded test outcome, item COc1ccc(-c2cc(C)nc3[nH]c(=O)sc23)cc1
Output line: false

Input line: Assay outcome for CC(=O)C[n+]1cccc2c3ccccc3ccc21 : what was it?
Output line: false

Input line: Each molecule tested received a call. Report the one for Cc1ccc(C2CC(c3ccc(NC(=O)Nc4ccccc4)cc3)=NN2c2ccc(S(C)(=O)=O)cc2)cc1 (stereo not drawn) .
Output line: true

Input line: Test call, this molecule: C[C@H]1[C@@H](CC(=O)N[C@@H](Cc2coc3ccccc23)B(O)O)O[C@@H]2OC3(C)CC[C@H]4[C@H](C)CC[C@@H]1[C@@]24O3
Output line: true

Input line: What did the test return for NS(=O)(=O)c1ccc(N2N=C(c3ccc(NC(=O)Nc4ccccc4)cc3)CC2c2ccc(Br)cc2)cc1 (stereo not drawn) ?
Output line: true

Input line: Given CN1C(=O)/C(=C\C(=O)c2cc3ccccc3oc2=O)c2ccccc21 , state the outcome it received in this test.
Output line: false
